These measurements were taken from patent US9657062B2.

- system under test: human growth hormone secretagogue receptor type 1a (human, UniProt Q92847 1-366)
- Sequence (Q92847 whole entry): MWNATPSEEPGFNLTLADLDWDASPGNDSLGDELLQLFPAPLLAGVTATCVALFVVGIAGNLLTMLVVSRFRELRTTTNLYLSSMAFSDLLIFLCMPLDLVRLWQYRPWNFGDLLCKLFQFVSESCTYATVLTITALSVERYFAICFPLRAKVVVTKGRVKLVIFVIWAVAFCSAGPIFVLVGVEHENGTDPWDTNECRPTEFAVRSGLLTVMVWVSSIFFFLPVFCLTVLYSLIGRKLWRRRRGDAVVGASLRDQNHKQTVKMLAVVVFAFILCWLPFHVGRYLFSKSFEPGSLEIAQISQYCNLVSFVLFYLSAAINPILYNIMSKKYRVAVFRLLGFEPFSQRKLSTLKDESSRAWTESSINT
- measurement description: cell-based or functional assay
[ ]: non-standard residue; d: D form. The star is where a group is joined. Octanoyl = CCCCCCCC(=O)*; Dap = NC[C@H](N)C(=O)O; Octyl = CCCCCCCC*
readout name: EC50 (nM); Ca2+ induction in HEK293 cells stably expressing the human ghrelin receptor

binder	unit abbreviation	readout value
H-PSS(Octyl)FLSPEHQRVQQRKESKKPPAKLQPR-NH2 [H-PS-S(O-octyl)-FLSPEHQRVQQRKESKKPPAKLQPR-NH2]	nM	0.396
H-PS[NH‑CH(n-C10H21)‑C(O)]FLSPEHQRVQQRKESKKPPA-NH2 [H-PS-[NH-CH(n-C10H21)-C(O)]-FLSPEHQRVQQRKESKKPPA-NH2]	nM	0.255

(1) H-PS[Dap](Octanoyl)FLSPEHQRVQRKESKKPPAKLQPR-NH2 [H-PS-Dap(N-octanoyl)-FLSPEHQRVQRKESKKPPAKLQPR-NH2]
(2) H-PS[Dap](Octanoyl)FL-NH2 (SMILES CCCCCCCC(=O)NC[C@H](NC(=O)[C@H](CO)NC(=O)[C@@H]1CCCN1)C(=O)N[C@@H](Cc1ccccc1)C(=O)N[C@@H](CC(C)C)C(N)=O) [H-PS-Dap(N-octanoyl)-FL-NH2]
(3) H-PS[NH‑CH(n-C10H21)‑C(O)]FLSPK-NH2 [H-PS-[NH-CH(n-C10H21)-C(O)]-FLSPK-NH2]
(4) XSSFLSPEHQRVQQRKESKKPPAKLQPR (DPro at position 1; Ser(O-octanoyl) at position 3; C-terminal -OH) [H-[DPro]-S-S(O-octanoyl)-FLSPEHQRVQQRKESKKPPAKLQPR-OH]
// ascending sort on recorded EC50 (nM); Ca2+ induction in HEK293 cells stably expressing the human ghrelin receptor Reply with the labels, ordered as the question asks.
1, 3, 4, 2

(A) PSSFLSPEHQRVQQRKESKKPPAKLQPR (Dap(N-octanoyl) at position 3; C-terminal amide (-NH2)) [H-PS-Dap(N-octanoyl)-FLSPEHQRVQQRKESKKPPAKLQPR-NH2]
(B) H-PSS(Octanoyl)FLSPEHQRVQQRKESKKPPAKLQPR-OH [H-PS-S(O-octanoyl)-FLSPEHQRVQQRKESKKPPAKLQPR-OH]
Which gives the smaller EC50 (nM); Ca2+ induction in HEK293 cells stably expressing the human ghrelin receptor number: A or B ? Label of pick, please.
A

(a) H-PS[Dap](Octanoyl)FLS-NH2 (SMILES CCCCCCCC(=O)NC[C@H](NC(=O)[C@H](CO)NC(=O)[C@@H]1CCCN1)C(=O)N[C@@H](Cc1ccccc1)C(=O)N[C@@H](CC(C)C)C(=O)N[C@@H](CO)C(N)=O) [H-PS-Dap(N-octanoyl)-FLS-NH2]
(b) H-PS[NH‑CH(n-C10H21)‑C(O)]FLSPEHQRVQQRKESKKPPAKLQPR-NH2 [H-PS-[NH-CH(n-C10H21)-C(O)]-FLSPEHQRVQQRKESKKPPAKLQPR-NH2]
Which gives the smaller EC50 (nM); Ca2+ induction in HEK293 cells stably expressing the human ghrelin receptor number: a or b ? Label of pick, please.
b
